- test: protein stability index of a GFP-peptide fusion (GPS, HEK-293T) (PSI 1-6); higher = more stable;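 note: 24-mer peptide tiles fused after GFP, lentivirally expressed, FACS-sorted into six equal bins by GFP/DsRed ratio, decoded by Illumina sequencing, PSI is the read-weighted mean bin number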
- stated.conditions: treatment: MLN4924 1 uM, 8 h; c terminus: a fixed tail appended
measured.parameter: protein stability index

Please look at this sequence and report its protein stability index: RQLLCLIDYYESKIRKIHTQRQYK [CEP70]
2.95

Please look at this sequence and report its protein stability index: TEDSPLGTVVALLNVHDLDSEQNG [PCDHGA10]
4.94

Please look at this sequence and report its protein stability index: ERCLHMFLQEEAIDRNYVPGKSLA [SNX12]
3.05

Please look at this sequence and report its protein stability index: KRRKSMSGASPKESTNPEKAHETL [CDC25A]
5.03

====

- test: protein stability index of a GFP-peptide fusion (GPS, HEK-293T) (PSI 1-6); higher = more stable
- stated.conditions: treatment: MLN4924 1 uM, 8 h; c terminus: a fixed tail appended
Decision: protein stability index compared against 3; not below it gives Condition met, below it gives Condition not met.

Has PAWYVAACRANVKSGAIMSALSDT [PPFIA4] a recorded protein stability index greater than or equal to 3?
Condition not met

Has KQLRRQMWWRGCKIKAIMALVAAI [VAMP4] a recorded protein stability index greater than or equal to 3?
Condition not met

Has GGTSVGSLGVPGSVGGVPGGTGSG [ZBTB22] a recorded protein stability index greater than or equal to 3?
Condition met

Has TIEELQQKILCAKAENARLVVNID [KRT34] a recorded protein stability index greater than or equal to 3?
Condition met

Has EEFNVLEMEVMRRQLYAVNRRLRA [FATE1] a recorded protein stability index greater than or equal to 3?
Condition met

Has PAGVGVVVEATHMCMVMRGVQKMN [GCH1] a recorded protein stability index greater than or equal to 3?
Condition not met

Has PEKQKRKPGLRRSPIKKVRKSLAL [MYBL2] a recorded protein stability index greater than or equal to 3?
Condition met

Has SAGNRTHKARTRPKARKQGVSPAD [ADAMTSL2] a recorded protein stability index greater than or equal to 3?
Condition met

Has RLENRYEALAKQVASEMRFVQDLV [DAPK3] a recorded protein stability index greater than or equal to 3?
Condition not met

Has ADFESEDEGEEFDDWEDDYDYPEE [EID1] a recorded protein stability index greater than or equal to 3?
Condition met

Has NKVLVCPMKSAPVMLTLSDSKHVV [RBBP5] a recorded protein stability index greater than or equal to 3?
Condition not met

Has LQARERGEEQVELSTIEELIKDAI [C2CD2L] a recorded protein stability index greater than or equal to 3?
Condition met

Has FGELMRKLWNPRNFKAHVSPHEML [USP39] a recorded protein stability index greater than or equal to 3?
Condition not met

Has ERFLELAPDFVGDILWEHLEQMIK [ETS2] a recorded protein stability index greater than or equal to 3?
Condition not met

Has AQSRLEDPGQDLVPKQAIQVQEAD [DLX1] a recorded protein stability index greater than or equal to 3?
Condition met

Has LVSVYPDKYCPLLIKEGGMPLLRD [ZER1] a recorded protein stability index greater than or equal to 3?
Condition not met

Has TDGMILGPEDLSYQIYDVSGESNS [LARP4] a recorded protein stability index greater than or equal to 3?
Condition met

Has MNHFTVNLNREEKIIREIDFYRED [TRIM55] a recorded protein stability index greater than or equal to 3?
Condition met

Has PQLAGKWQVLCMLSLCCWGWVSGQ [PCDHGC5] a recorded protein stability index greater than or equal to 3?
Condition not met

Has DQLFMQEKARQLLGRLKPSHTSRT [MYBL2] a recorded protein stability index greater than or equal to 3?
Condition met

Has LFGEKLSGTDAEETILNAFKMLDP [MYL5] a recorded protein stability index greater than or equal to 3?
Condition met

Has KRSQSMKSYPSSELRNMCDEHIAS [CLCN6] a recorded protein stability index greater than or equal to 3?
Condition met

Has VLSVSKILHIPQVTKLCVQFLNDQ [KLHL14] a recorded protein stability index greater than or equal to 3?
Condition not met

Has EQREWVLKSSILIAMAVYTYLRLI [INTS3] a recorded protein stability index greater than or equal to 3?
Condition not met

Has LMMRMGILGRGLQEYQLPYQRVLP [TCAP] a recorded protein stability index greater than or equal to 3?
Condition not met
